# measured_target: Orexin/Hypocretin receptor type 1 (Homo sapiens, UniProt O43613)
# Sequence (O43613 whole entry): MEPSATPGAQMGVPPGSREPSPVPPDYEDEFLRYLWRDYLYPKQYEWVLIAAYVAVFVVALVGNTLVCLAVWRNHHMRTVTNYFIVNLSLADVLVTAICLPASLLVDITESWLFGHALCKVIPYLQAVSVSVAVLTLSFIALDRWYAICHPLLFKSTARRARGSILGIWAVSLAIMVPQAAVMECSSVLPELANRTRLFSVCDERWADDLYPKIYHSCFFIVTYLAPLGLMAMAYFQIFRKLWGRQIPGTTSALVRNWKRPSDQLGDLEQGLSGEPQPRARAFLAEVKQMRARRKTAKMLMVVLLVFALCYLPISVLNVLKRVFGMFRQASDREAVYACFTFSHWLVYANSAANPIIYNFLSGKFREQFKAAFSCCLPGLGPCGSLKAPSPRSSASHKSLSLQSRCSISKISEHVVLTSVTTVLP
# measurement_notes: Inhibition of OX1 receptor
parameter_measured: log10 IC50 (log10 of the value in nM)

compound | measured_target | value_measured
CCCCNC(=O)C(c1ccccc1)N1CCc2cc(OC)c(OC)cc2C1Cc1ccc(OC)c(OC)c1 (stereo not given) | Orexin/Hypocretin receptor type 1 (Homo sapiens, UniProt O43613) | 1.88
COc1ccc(CC2c3cc(OC)c(OC)cc3CCN2CC(=O)N(C)Cc2ccccc2)cc1OC (racemic) | Orexin/Hypocretin receptor type 1 (Homo sapiens, UniProt O43613) | 3.30
COc1cc2c(cc1OC)C(Cc1ccc3c(c1)OCO3)N(CC(=O)NC1CCc3ccccc31)CC2 (stereo not given) | Orexin/Hypocretin receptor type 1 (Homo sapiens, UniProt O43613) | 3.16
COc1ccc(CC2c3cc(OC)c(OC)cc3CCN2C(C(=O)Nc2ccc3c(c2)OCO3)c2ccccc2)cc1OC (stereo not given) | Orexin/Hypocretin receptor type 1 (Homo sapiens, UniProt O43613) | 1.32
COc1cc2c(cc1OC)C(Cc1ccccc1)N(CC(=O)NC1CCc3ccccc31)CC2 (stereo not given) | Orexin/Hypocretin receptor type 1 (Homo sapiens, UniProt O43613) | 3.65
COc1cc2c(cc1OC)C(Cc1ccc(Oc3ncccn3)c(OC)c1)N(CC(=O)NCc1ccccc1)CC2 (stereo not given) | Orexin/Hypocretin receptor type 1 (Homo sapiens, UniProt O43613) | 1.72
CCCCNC(=O)C(c1ccccc1)N1CCc2cc(OC)c(OC)cc2C1Cc1ccc(N(C)C)cc1 (stereo not given) | Orexin/Hypocretin receptor type 1 (Homo sapiens, UniProt O43613) | 1.65
COc1ccc(CC2c3cc(OC)c(OC)cc3CCN2CC(=O)NCc2ccncc2)cc1OC (racemic) | Orexin/Hypocretin receptor type 1 (Homo sapiens, UniProt O43613) | 3.06
COc1ccc(CC2c3cc(OC)c(OC)cc3CCN2CC(=O)NC2CCc3ccccc32)cc1 (stereo not given) | Orexin/Hypocretin receptor type 1 (Homo sapiens, UniProt O43613) | 3.07
COc1ccc(CC2c3cc(OC)c(OC)cc3CCN2CC(=O)NCc2ccccn2)cc1OC (racemic) | Orexin/Hypocretin receptor type 1 (Homo sapiens, UniProt O43613) | 2.84
COc1ccc(CC2c3cc(OC)c(OC)cc3CCN2CC(=O)NCc2ccno2)cc1OC (racemic) | Orexin/Hypocretin receptor type 1 (Homo sapiens, UniProt O43613) | 2.86
COc1ccc(CC2c3cc(OC)c(OC)cc3CCN2CC(=O)NCc2ccccc2)cc1 (stereo not given) | Orexin/Hypocretin receptor type 1 (Homo sapiens, UniProt O43613) | 3.93
COc1ccc(CC2c3cc(OC)c(OC)cc3CCN2CC(=O)N2CCc3ccccc3C2)cc1OC (racemic) | Orexin/Hypocretin receptor type 1 (Homo sapiens, UniProt O43613) | 4.00
COc1cc2c(cc1OC)C(Cc1ccccc1)N(CC(=O)NCc1ccccc1)CC2 (stereo not given) | Orexin/Hypocretin receptor type 1 (Homo sapiens, UniProt O43613) | 3.76
CCCCNC(=O)C(c1ccccc1)N1CCc2cc(OC)c(OC)cc2C1CCc1ccc(F)c(F)c1 (stereo not given) | Orexin/Hypocretin receptor type 1 (Homo sapiens, UniProt O43613) | 3.28
COc1cccc(CC2c3cc(OC)c(OC)cc3CCN2CC(=O)NCc2ccccc2)c1 (stereo not given) | Orexin/Hypocretin receptor type 1 (Homo sapiens, UniProt O43613) | 3.63
COc1cccc(CC2c3cc(OC)c(OC)cc3CCN2CC(=O)NC2CCc3ccccc32)c1 (stereo not given) | Orexin/Hypocretin receptor type 1 (Homo sapiens, UniProt O43613) | 3.05
COc1ccc(CC2c3cc(OC)c(OC)cc3CCN2CC(=O)N(C)C2CCCCC2)cc1OC (racemic) | Orexin/Hypocretin receptor type 1 (Homo sapiens, UniProt O43613) | 3.19
